# key: entry, value: intrinsic clearance, rat liver microsomes
Number in mL/min/kg, nothing else.

# example entries with known answers
molecule: C[C@@H]1NC(=O)N(CCC2Cc3ccccc3C2)C1=O
result.value: 193
//
molecule: O=C(OCc1cc(Cl)ccn1)c1ccc2[nH]c(C(F)F)nc2c1
result.value: 1520
//
molecule: CC(C)(C(=O)c1ccccc1)/[N+]([O-])=C/c1ccc(F)cc1
result.value: 61.4
//
molecule: CN(c1nc2ccccc2o1)C1CCN(C2CCOCC2)CC1
result.value: 117
//
molecule: Clc1ccc(Cc2nc(-c3ccccc3)n[nH]2)cn1
result.value: 66.8

// query Name the reported intrinsic clearance, rat liver microsomes value associated with the molecule COc1ccccc1-c1nnc([C@H]2CCN(Cc3ccccc3C)C2)o1
// result 3190

// query Name the reported intrinsic clearance, rat liver microsomes value associated with the molecule CCc1nc2ccccc2n1CC(=O)Nc1cnc2ccccc2c1
// result 188
